Form field: TGI (one value per entry).
- System: SNB-78 CNS
- experiment: NCI tumour cell line growth inhibition, 48 h

Worked examples follow.
Qu. For N=C(c1ccccc1)N1CCCCC1 , what is its reported TGI?
Ans. > 100 µM

Qu. For COc1ccc2c(OC)c3ccoc3nc2c1O , what is its reported TGI?
Ans. > 100 µM

Qu. For O=[N+]([O-])c1ccc(Cc2nc3ccccc3s2)cc1 , what is its reported TGI?
Ans. > 100 µM

Qu. For CCOc1ccc(NCC(=O)N2CC(=O)Nc3ccccc32)cc1 , what is its reported TGI?
Ans. > 100 µM

Qu. For CCN=C1NN=C(c2ccccc2)c2cc(Cl)ccc2N1 , what is its reported TGI?
Ans. 72 µM

New cases:
Qu. For CCc1cc(Cc2cc(CC)c(NC(=O)C3=CC(=O)CC(c4ccc(OC)cc4)O3)c(CC)c2Cl)c(Cl)c(CC)c1NC(=O)C1=CC(=O)CC(c2ccc(OC)cc2)O1 (stereo unspecified) , what is its reported TGI?
Ans. 85.1 µM

Qu. For Cc1nc2ccccc2nc1NS(=O)(=O)c1ccc(N)cc1 , what is its reported TGI?
Ans. > 100 µM

Qu. For COC(=O)c1c/c(=N\NC(=O)CC(=O)Nc2ccccc2Cl)c2ccccc2o1 , what is its reported TGI?
Ans. > 100 µM

Qu. For Clc1ccc(C2=Nc3ccccc3SC(c3ccc(Cl)c(Cl)c3)C2)c(Cl)c1 (stereo unspecified) , what is its reported TGI?
Ans. 35.5 µM

Qu. For CSC(=S)N(C)c1nc(=[N+](C)C)ss1 , what is its reported TGI?
Ans. > 100 µM

Qu. For CC(=O)OC1[C@H]2c3cc4c(cc3CN3CCC(C[C@@H]1OC(C)=O)C23)OCO4 (stereo partly specified) , what is its reported TGI?
Ans. > 75 µM

###

- Tested on: 786-0 renal
- experiment: NCI tumour cell line growth inhibition, 48 h; in the data active means GI50 below about 0.43 µM; inactive means the rest
Your response should consist of one outcome taken from TRUE = active, FALSE = inactive

Example cases with answers are listed next.
Qu. Can you look up the reported call for CCCCCCn1c(-c2ccc(C(=O)O/N=C(\N)c3ccc(OC)cc3)cc2)nc(-c2ccccc2)c1-c1ccccc1 for me?
Ans. TRUE

Qu. Can you look up the reported call for OCCN(CO)CN(CN(CO)CCO)c1nc(N(CN(CO)CCO)CN(CO)CCO)nc(N(CN(CO)CCO)CN(CO)CCO)n1 for me?
Ans. FALSE

Qu. Can you look up the reported call for COc1n[n+]([O-])c(C)cc1[N+](=O)[O-] for me?
Ans. FALSE

New cases:
Qu. Can you look up the reported call for CC[C@@]1(O)C(=O)NCc2c1cc1n(c2=O)Cc2cc3cc4c(cc3nc2-1)OCO4 for me?
Ans. FALSE

Qu. Can you look up the reported call for CN(C)c1cccc2[nH]c(-c3[nH]ncc3Nc3ccnc(N)n3)nc12 for me?
Ans. TRUE

Qu. Can you look up the reported call for O=C(Nc1ccccc1Cl)c1cnc2ccc(C3CCNCC3)cn12 for me?
Ans. FALSE

Qu. Can you look up the reported call for COC(=O)C1=CN(CC2=CC(=O)C(C)=CC2=O)C=C(C(=O)OC)C1c1cccc(OC)c1OC for me?
Ans. FALSE

Qu. Can you look up the reported call for CCN(CC)c1ccc(/C=N/NC(=O)c2ccc(Nc3ccnc(C(F)(F)F)c3)cc2)c(O)c1 for me?
Ans. TRUE

Qu. Can you look up the reported call for COC(=O)Nc1ccc2ccc3c(NC(=O)OC)ccc4ccc1c2c43 (tested in a mixture with another compound) for me?
Ans. FALSE
